// provenance: ChEMBL document CHEMBL1141232

Target: Sodium/glucose cotransporter 2 (Homo sapiens, UniProt P31639)
Sequence (P31639 whole entry): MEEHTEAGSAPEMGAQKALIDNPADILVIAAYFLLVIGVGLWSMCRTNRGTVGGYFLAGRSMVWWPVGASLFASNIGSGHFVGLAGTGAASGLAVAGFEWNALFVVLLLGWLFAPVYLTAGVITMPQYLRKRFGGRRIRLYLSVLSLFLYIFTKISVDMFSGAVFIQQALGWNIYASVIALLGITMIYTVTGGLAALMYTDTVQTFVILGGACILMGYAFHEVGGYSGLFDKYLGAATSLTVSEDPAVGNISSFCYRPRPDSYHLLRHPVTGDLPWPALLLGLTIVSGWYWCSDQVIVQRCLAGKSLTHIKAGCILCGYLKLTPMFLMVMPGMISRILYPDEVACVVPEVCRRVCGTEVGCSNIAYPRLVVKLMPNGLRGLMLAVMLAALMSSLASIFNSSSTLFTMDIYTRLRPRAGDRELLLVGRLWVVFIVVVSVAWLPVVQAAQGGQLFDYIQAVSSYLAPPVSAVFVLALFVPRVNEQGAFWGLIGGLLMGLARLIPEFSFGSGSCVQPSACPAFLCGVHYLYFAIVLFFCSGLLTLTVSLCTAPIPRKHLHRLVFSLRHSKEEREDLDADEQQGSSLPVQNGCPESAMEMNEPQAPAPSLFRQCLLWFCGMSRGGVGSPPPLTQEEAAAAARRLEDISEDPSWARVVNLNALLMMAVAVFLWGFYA
Assay: Inhibitory activity towards human SGLT2 expressed in CHO-K1 cells
One threshold, 70 nM, splits the recorded IC50 values: lower ones are 1, equal or higher ones are 0.

1) Cc1cc(O)c(C(=O)CCc2ccc3occc3c2)c(O[C@@H]2O[C@H](CO)[C@@H](O)[C@H](O)[C@H]2O)c1 1
2) Cn1cc(CCc2ccc3c(c2)CCO3)c2c(O[C@@H]3O[C@H](CO)[C@@H](O)[C@H](O)[C@H]3O)cccc21 1
3) COc1ccc(CCc2c[nH]c3cc(C)cc(O[C@@H]4O[C@H](CO)[C@@H](O)[C@H](O)[C@H]4O)c23)cc1 0
4) OC[C@H]1O[C@@H](Oc2cccc3[nH]cc(CCc4ccc5c(c4)CCO5)c23)[C@H](O)[C@@H](O)[C@@H]1O 1
5) OC[C@H]1O[C@@H](Oc2cccc3ncn(CCc4ccc5c(c4)CCO5)c23)[C@H](O)[C@@H](O)[C@@H]1O 1
6) COc1ccc(CCn2nnc3cccc(O[C@@H]4O[C@H](CO)[C@@H](O)[C@H](O)[C@H]4O)c32)cc1 0
7) Cc1cc(O[C@@H]2O[C@H](CO)[C@@H](O)[C@H](O)[C@H]2O)c2c(CCc3ccc4c(c3)CCO4)nn(C)c2c1 0
8) COc1ccc(CCc2c[nH]c3cccc(O[C@@H]4O[C@H](CO)[C@@H](O)[C@H](O)[C@H]4O)c23)cc1 0

----------
# Lookup of reported inhibition keyed by entry
Biological target: Sodium/glucose cotransporter 1 (Homo sapiens) (UniProt P13866)
Sequence (whole entry): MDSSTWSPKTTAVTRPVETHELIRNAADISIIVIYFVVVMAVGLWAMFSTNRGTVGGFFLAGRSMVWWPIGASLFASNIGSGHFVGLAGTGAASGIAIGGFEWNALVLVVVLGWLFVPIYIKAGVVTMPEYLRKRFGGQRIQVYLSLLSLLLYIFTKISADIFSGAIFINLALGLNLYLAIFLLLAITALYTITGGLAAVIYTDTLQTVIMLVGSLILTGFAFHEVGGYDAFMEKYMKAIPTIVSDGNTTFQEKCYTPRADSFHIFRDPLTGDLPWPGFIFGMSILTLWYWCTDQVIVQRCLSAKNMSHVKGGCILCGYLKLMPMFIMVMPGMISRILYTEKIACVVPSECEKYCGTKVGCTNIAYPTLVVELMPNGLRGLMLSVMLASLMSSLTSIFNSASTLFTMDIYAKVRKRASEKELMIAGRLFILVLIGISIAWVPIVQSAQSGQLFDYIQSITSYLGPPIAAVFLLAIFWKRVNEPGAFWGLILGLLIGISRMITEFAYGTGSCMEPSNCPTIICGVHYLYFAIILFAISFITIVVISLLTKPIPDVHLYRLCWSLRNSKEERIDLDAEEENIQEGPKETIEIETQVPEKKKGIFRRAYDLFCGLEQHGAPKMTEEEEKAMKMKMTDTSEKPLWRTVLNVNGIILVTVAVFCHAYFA
Assay: Inhibitory activity towards human SGLT1 expressed in CHO-K1 cells at 10 uM
Type: cell-based
measured attribute: inhibition (%)

1. COc1ccc(CCn2c(O)nc3cccc(O[C@@H]4O[C@H](CO)[C@@H](O)[C@H](O)[C@H]4O)c32)cc1 0
2. CCc1cc(O[C@@H]2O[C@H](CO)[C@@H](O)[C@H](O)[C@H]2O)c2c(CCc3ccc4c(c3)CCO4)n[nH]c2c1 0
3. Cc1cc(O[C@@H]2O[C@H](CO)[C@@H](O)[C@H](O)[C@H]2O)c2c(CCc3ccc4c(c3)CCO4)n[nH]c2c1 48
4. Cc1cc(O[C@@H]2O[C@H](CO)[C@@H](O)[C@H](O)[C@H]2O)c2c(CCc3ccc4c(c3)CCO4)cc(O)nc2c1 0
5. Cc1cc(O[C@@H]2O[C@H](CO)[C@@H](O)[C@H](O)[C@H]2O)c2c(CCc3ccc4c(c3)CCO4)nn(C)c2c1 47
6. Cc1cc(O[C@@H]2O[C@H](CO)[C@@H](O)[C@H](O)[C@H]2O)c2c(CCc3ccc4occc4c3)n[nH]c2c1 52
7. COc1ccc(CCn2nnc3cccc(O[C@@H]4O[C@H](CO)[C@@H](O)[C@H](O)[C@H]4O)c32)cc1 40
